Protocol Summary: Plasma pharmacokinetics of sorafenib with RT, with or without CsA pretreatment, in freely moving rats
Assay type: in vivo, Sprague-Dawley rats
Reported Conditions: Sprague-Dawley, rat, plasma, oral, 40 mg/kg, plasma, CsA 20 mg/kg i.p. + RT2Gy, sorafenib 40 mg/kg 24 hr later
Measurement Type: Cmax (ng/mL)

In [3]: df
Out[3]:
                                     smiles  quantitative_readout
0  CNC(=O)c1cc(Oc2ccc(NC(=O)Nc3ccc(Cl)c(C(F)(F)F)c3)cc2)ccn1                  7710

Data origin: paper PMC7293270
